B1: FAM46D (parent)
chain: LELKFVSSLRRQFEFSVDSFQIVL

Variants of: B1
Assay: protein stability index of a GFP-peptide fusion (GPS, HEK-293T) (PSI 1-6); higher = more stable;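 further: lentivirally expressed fusions sorted by FACS into six bins by GFP to DsRed ratio, PSI derived from sequencing read proportions per bin multiplied by bin number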
Details: c terminus: a fixed tail appended
readout: protein stability index

Sample answers from the record:
LYLKFVSSLRRQFEFSVDSFQIVL [E2Y] : 3.04
LELKFVSSLRRQFEFNVDSFQIVL [S16N] : 3.05

Could you now consider this next variant?
Bench note: what protein stability index did LELKFVSSLRRQFEFSVDSFRIVL [Q21R] show? 3.02
